The reported numbers originate from patent US20250034216A1.

Molecular target: HARS2_C175 (Homo sapiens)
Construct: endogenous in cells; host or cells: 22Rv1
Sequence (P49590 34-506): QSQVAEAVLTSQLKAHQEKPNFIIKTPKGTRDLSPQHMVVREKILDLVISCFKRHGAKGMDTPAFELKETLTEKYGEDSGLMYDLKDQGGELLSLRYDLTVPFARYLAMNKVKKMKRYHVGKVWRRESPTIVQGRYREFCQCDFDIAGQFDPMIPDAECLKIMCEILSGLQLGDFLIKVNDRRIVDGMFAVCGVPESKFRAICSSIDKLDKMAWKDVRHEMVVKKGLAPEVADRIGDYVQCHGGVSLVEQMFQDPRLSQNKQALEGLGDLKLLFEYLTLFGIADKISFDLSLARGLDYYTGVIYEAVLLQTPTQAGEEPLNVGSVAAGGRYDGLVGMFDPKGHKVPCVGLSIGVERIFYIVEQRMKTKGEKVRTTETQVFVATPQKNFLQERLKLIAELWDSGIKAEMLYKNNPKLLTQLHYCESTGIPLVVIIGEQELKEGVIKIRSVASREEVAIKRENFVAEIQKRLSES
Experiment: IA-DTB cysteine engagement
Assay type: binding
Conditions: 22Rv1 cells, 20 μM probe, 1 h, relative to DMSO
RECORDED_ENDPOINT: % engagement HARS2_C175 (%)

Here's what some known entries look like.
C=CC(=O)N1C[C@H](c2ccc(Br)cc2)[C@@H]1C(=O)Nc1cccc2cccnc12 [MY-1B]
67
C=CC(=O)N1C[C@H](c2ccc(Br)cc2)[C@H]1C(=O)Nc1cccc2cccnc12 [MY-3A]
11.5

A = C=CC(=O)N1C[C@@H](c2ccc(Br)cc2)[C@H]1C(=O)Nc1cccc2cccnc12 [MY-1A]
B = C=CC(=O)N1C[C@H](c2ccc(Br)cc2)[C@H]1C(=O)Nc1cccc2cccnc12 [MY-3B]
INPUT: Hi! Which is lower in terms of % engagement HARS2_C175, the first one A or the second one B ? Indicate which entry you chose by stating its label.
OUTPUT: B

---

Target: TMEM256-PLSCR3_C126 (Homo sapiens, UniProt Q9NRY6)
Construct: endogenous in cells; host or cells: 22Rv1
Sequence (Q9NRY6 whole entry): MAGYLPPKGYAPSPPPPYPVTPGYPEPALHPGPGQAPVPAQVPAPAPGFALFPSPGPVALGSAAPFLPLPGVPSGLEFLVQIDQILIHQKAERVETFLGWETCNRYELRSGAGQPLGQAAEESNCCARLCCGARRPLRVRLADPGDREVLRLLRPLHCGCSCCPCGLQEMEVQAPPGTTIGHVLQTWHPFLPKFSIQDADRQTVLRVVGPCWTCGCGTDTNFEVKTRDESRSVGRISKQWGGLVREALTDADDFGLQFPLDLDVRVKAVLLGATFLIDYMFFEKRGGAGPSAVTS
Assay: IA-DTB cysteine engagement
Type: binding
Conditions: 22Rv1 cells, 20 μM probe, 1 h, relative to DMSO
RECORDED_ENDPOINT: % engagement TMEM256-PLSCR3_C126 (%)

C=CC(=O)N1C[C@H](c2ccc(Br)cc2)[C@H]1C(=O)Nc1cccc2cccnc12 [MY-3A]
58
C=CC(=O)N1C[C@H](c2ccc(Br)cc2)[C@@H]1C(=O)Nc1cccc2cccnc12 [MY-1B]
86
C=CC(=O)N1C[C@@H](c2ccc(Br)cc2)[C@H]1C(=O)Nc1cccc2cccnc12 [MY-1A]
81
C=CC(=O)N1C[C@H](c2ccc(Br)cc2)[C@H]1C(=O)Nc1cccc2cccnc12 [MY-3B]
66

---

Molecular target: PTGES2_C110 (Homo sapiens, UniProt Q9H7Z7)
Construct: endogenous in cells; host or cells: 22Rv1
Sequence (Q9H7Z7 whole entry): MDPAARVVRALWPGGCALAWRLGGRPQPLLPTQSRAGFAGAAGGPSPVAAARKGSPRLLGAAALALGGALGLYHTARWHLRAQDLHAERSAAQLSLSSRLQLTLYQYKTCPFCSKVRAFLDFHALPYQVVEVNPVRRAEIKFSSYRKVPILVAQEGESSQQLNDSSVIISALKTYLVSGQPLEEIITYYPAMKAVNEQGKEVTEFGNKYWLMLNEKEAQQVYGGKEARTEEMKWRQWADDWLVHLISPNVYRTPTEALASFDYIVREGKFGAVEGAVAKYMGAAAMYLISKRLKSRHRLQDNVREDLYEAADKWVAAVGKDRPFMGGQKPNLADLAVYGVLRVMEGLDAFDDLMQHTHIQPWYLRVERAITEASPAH
Experiment: IA-DTB cysteine engagement
Assay type: binding
Details: 22Rv1 cells, 20 μM probe, 1 h, relative to DMSO
RECORDED_ENDPOINT: % engagement PTGES2_C110 (%)

C=CC(=O)N1C[C@H](c2ccc(Br)cc2)[C@H]1C(=O)Nc1cccc2cccnc12 [MY-3B]
89.25
C=CC(=O)N1C[C@H](c2ccc(Br)cc2)[C@@H]1C(=O)Nc1cccc2cccnc12
38.5

1 = C=CC(=O)N1C[C@@H](c2ccc(Br)cc2)[C@H]1C(=O)Nc1cccc2cccnc12
2 = C=CC(=O)N1C[C@H](c2ccc(Br)cc2)[C@H]1C(=O)Nc1cccc2cccnc12 [MY-3A]
INPUT: Input pair: 1 , 2 . Output: entry with lower % engagement PTGES2_C110. # reply format: chosen label
OUTPUT: 1

---

Target: SCAMP4_C20 (Homo sapiens, UniProt Q969E2)
Construct: endogenous in cells; host or cells: 22Rv1
Sequence (Q969E2 1-229): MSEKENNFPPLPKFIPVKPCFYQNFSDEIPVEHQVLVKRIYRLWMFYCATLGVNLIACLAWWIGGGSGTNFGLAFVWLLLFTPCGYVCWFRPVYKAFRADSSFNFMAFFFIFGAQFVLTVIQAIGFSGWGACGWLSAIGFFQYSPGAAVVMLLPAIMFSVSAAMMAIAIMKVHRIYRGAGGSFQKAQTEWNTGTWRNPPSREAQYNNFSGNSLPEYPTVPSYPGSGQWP
Test: IA-DTB cysteine engagement
Format: binding
Settings: 22Rv1 cells, 20 μM probe, 1 h, relative to DMSO
RECORDED_ENDPOINT: % engagement SCAMP4_C20 (%)

C=CC(=O)N1C[C@H](c2ccc(Br)cc2)[C@H]1C(=O)Nc1cccc2cccnc12 [MY-3A]
72.5
C=CC(=O)N1C[C@@H](c2ccc(Br)cc2)[C@H]1C(=O)Nc1cccc2cccnc12 [MY-1A]
80
C=CC(=O)N1C[C@H](c2ccc(Br)cc2)[C@H]1C(=O)Nc1cccc2cccnc12 [MY-3B]
100
C=CC(=O)N1C[C@H](c2ccc(Br)cc2)[C@@H]1C(=O)Nc1cccc2cccnc12 [MY-1B]
85.5

---

Target: LRPPRC_C571 (Homo sapiens, UniProt P42704)
Construct: endogenous in cells; host or cells: 22Rv1
Assay: IA-DTB cysteine engagement
Type: binding
Details: 22Rv1 cells, 20 μM probe, 1 h, relative to DMSO
RECORDED_ENDPOINT: % engagement LRPPRC_C571 (%)

For orientation, consider the following solved cases.
C=CC(=O)N1C[C@H](c2ccc(Br)cc2)[C@H]1C(=O)Nc1cccc2cccnc12 [MY-3A]
20
C=CC(=O)N1C[C@H](c2ccc(Br)cc2)[C@@H]1C(=O)Nc1cccc2cccnc12 [MY-1B]
7

I = C=CC(=O)N1C[C@H](c2ccc(Br)cc2)[C@H]1C(=O)Nc1cccc2cccnc12 [MY-3B]
II = C=CC(=O)N1C[C@@H](c2ccc(Br)cc2)[C@H]1C(=O)Nc1cccc2cccnc12 [MY-1A]
INPUT: Which record would sort first by descending % engagement LRPPRC_C571, I or II ? Identify your pick by its label.
OUTPUT: II

---

Biological target: FXYD3_C63 (Homo sapiens, UniProt Q14802)
Construct: endogenous in cells; host or cells: 22Rv1
Sequence (Q14802 21-87): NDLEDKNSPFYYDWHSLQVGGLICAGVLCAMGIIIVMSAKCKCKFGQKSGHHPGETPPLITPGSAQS
Experiment: IA-DTB cysteine engagement
Format: binding
Conditions: 22Rv1 cells, 20 μM probe, 1 h, relative to DMSO
RECORDED_ENDPOINT: % engagement FXYD3_C63 (%)

Study these solved cases before continuing.
C=CC(=O)N1C[C@@H](c2ccc(Br)cc2)[C@H]1C(=O)Nc1cccc2cccnc12
48.5
C=CC(=O)N1C[C@H](c2ccc(Br)cc2)[C@@H]1C(=O)Nc1cccc2cccnc12
52.5

P = C=CC(=O)N1C[C@H](c2ccc(Br)cc2)[C@H]1C(=O)Nc1cccc2cccnc12 [MY-3A]
Q = C=CC(=O)N1C[C@H](c2ccc(Br)cc2)[C@H]1C(=O)Nc1cccc2cccnc12 [MY-3B]
INPUT: Which entry has a larger number for % engagement FXYD3_C63, P or Q ? Write down the label attached to your selection.
OUTPUT: Q
(Q: 71%, P: 43.5%)

---

Target: ABCB8_C462 (Homo sapiens, UniProt Q9NUT2)
Construct: endogenous in cells; host or cells: 22Rv1
Sequence (Q9NUT2 26-735): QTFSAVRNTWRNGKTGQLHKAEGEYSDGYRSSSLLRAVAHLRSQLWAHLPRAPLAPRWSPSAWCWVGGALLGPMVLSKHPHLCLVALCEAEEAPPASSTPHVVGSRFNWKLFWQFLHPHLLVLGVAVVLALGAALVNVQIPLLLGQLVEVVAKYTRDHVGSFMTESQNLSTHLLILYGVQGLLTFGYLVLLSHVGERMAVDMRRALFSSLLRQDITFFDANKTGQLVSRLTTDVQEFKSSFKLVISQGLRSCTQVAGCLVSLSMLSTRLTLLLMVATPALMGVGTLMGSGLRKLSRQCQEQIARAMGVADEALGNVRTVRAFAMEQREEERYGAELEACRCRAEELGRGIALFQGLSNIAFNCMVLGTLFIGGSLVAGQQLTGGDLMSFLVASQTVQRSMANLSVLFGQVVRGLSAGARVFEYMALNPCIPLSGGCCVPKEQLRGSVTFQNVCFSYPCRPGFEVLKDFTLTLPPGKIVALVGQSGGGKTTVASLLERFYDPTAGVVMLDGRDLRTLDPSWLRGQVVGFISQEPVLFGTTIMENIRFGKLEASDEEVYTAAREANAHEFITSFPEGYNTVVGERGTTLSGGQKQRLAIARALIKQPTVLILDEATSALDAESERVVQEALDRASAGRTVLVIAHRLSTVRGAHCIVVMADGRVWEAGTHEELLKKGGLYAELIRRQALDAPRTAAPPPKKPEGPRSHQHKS
Test: IA-DTB cysteine engagement
Assay type: binding
Details: 22Rv1 cells, 20 μM probe, 1 h, relative to DMSO
RECORDED_ENDPOINT: % engagement ABCB8_C462 (%)

A = C=CC(=O)N1C[C@H](c2ccc(Br)cc2)[C@H]1C(=O)Nc1cccc2cccnc12 [MY-3B]
B = C=CC(=O)N1C[C@H](c2ccc(Br)cc2)[C@H]1C(=O)Nc1cccc2cccnc12 [MY-3A]
C = C=CC(=O)N1C[C@H](c2ccc(Br)cc2)[C@@H]1C(=O)Nc1cccc2cccnc12 [MY-1B]
INPUT: Put the compounds in ascending order of % engagement ABCB8_C462. Provide the labels, sequenced as the question asks.
OUTPUT: B, C, A
